Hello, the source for this data is patent US20080234198A1, in case you need it.

Target: T1, human VPAC2 receptor (human, UniProt P41587 24-438)
T1 construct: whole, on cells; CHO-S cell line stably expressing human VPAC2 (cAMP assays)
T1 sequence (looked up): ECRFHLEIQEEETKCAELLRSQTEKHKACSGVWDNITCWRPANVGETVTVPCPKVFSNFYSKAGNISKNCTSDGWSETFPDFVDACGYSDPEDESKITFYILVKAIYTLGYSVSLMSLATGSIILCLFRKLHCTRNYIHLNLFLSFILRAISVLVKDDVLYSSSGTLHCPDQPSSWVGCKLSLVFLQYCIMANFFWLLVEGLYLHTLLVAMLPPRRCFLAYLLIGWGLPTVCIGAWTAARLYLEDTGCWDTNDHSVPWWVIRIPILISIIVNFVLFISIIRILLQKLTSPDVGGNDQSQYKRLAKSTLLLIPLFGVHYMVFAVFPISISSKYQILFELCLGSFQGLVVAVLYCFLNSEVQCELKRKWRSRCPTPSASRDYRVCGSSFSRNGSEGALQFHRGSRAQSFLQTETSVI
Test: filter binding, VPAC2 cell membranes, displacement of 125I-VIP

BINDER: HSDAVFTEQYTXLRXQVAAXXYLQSIXXGGPSSGAPPPS (C6-HSDAVFTEQY(OMe)TOrnLRK(CO(CH2)2SPEG40K)QVAAAibOrnYLQSIOrnOrnGGPSSGAPPPS-NH2) [P485]
IC50, nM: 17.3

BINDER: HSDAVFTEQYTXLRXQLAXXXYLQSIXXCGGPSSGAPPPC (C6-HSDAVFTEQY(OMe)TOrnLRAibQLAAbuAibOrnYLQSIOrnOrnC(PEG20K)GGPSSGAPPPC(PEG20K)-NH2) [P572]
IC50, nM: 14.9

BINDER: HSDAVFTEQYTXLRXQLXAXXYLQSIXXGGPSSGAPPPCC (C6-HSDAVFTEQY(OMe)TOrnLRAibQLAbuAAibOrnYLQSIOrnOrnGGPSSGAPPPC(PEG20K)C(PEG20K)-NH2) [P590]
IC50, nM: 7.4

BINDER: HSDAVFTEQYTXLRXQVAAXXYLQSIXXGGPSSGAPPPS (not fully specified; C6-HSDAVFTEQY(OMe)TOrnLRK(WPEG40K)QVAAAibOrnYLQSIOrnOrnGGPSSGAPPPS-NH2) [P529]
IC50, nM: 192

BINDER: HSDAVFTEQYTXLRXQLAXXXYXQSIXXGGPSSGAPPPCC (C6-HSDAVFTEQY(OMe)TOrnLRAibQLAAbuAibOrnYAibQSIOrnOrnGGPSSGAPPPC(PEG20K)C(PEG20K)-NH2) [P521]
IC50, nM: 67.1

BINDER: HSDAVFTEQYTXLRXQVAAXXYLCSIXXGGPSSGAPPPC (C6-HSDAVFTEQY(OMe)TOrnLRAibQVAAAibOrnYLC(PEG20K)SIOrnOrnGGPSSGAPPPC(PEG20K)-NH2) [P501]
IC50, nM: 111
